# EXPERIMENT DESCRIPTION: suppression of endothelial VCAM-1 upregulation – imaging, high-content imaging, pooled HUVEC, TNFa stimulus (AID 456);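 on inhibition: VCAM-1 immunofluorescence minus red nonspecific channel after plate median normalization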
# EXPERIMENTAL SETUP: HUVEC TNFa-induced VCAM-1 surface expression, immunofluorescence imaging;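 compounds screened at 5 µM final in the well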
Among all 10,000 compounds or so, about 25 (0.2%) were called active. The entries come from a sample that favours actives as a whole. Results with a measured potency or affinity are listed apart.
QUANTITY: inhibition

1. O=C(CSc1nnnn1Cc1ccccc1)Nc1ccc2c(c1)OCO2: inactive
2. COC(=O)c1cc(=O)n(Cc2ccc3c(c2)OCO3)c(=Nc2ccccc2)s1: 96.4% (inactive)
3. CCOC(=O)CN1CC23C=CC(O2)C(C(=O)Nc2ccc(OCC)cc2)C3C1=O (stereo not drawn): inactive
